# koff annotations
# assayed system: T1, biotinylated native human ApoC3 (human, UniProt P02656 21-99, biotinylated (site not stated))
# T1 construct: also called biotinylated human ApoC3
# T1 sequence (P02656 21-99): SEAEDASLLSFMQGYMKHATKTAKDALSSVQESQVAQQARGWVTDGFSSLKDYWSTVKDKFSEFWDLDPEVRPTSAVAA
# assay name: SPR, scFv-Fc over biotinylated ApoC3 on SA chip, pH 5.5

{"columns": ["binder", "koff [s⁻¹]"],
 "data": [
  ["5E5VH12_VLWT scFv-Fc (scFv, part only; not given: Linker, domain order, Fc, V domains shown, not shown: another chain or arm of the molecule; a dimerising Fc or GST; small tags and cut ends) VH: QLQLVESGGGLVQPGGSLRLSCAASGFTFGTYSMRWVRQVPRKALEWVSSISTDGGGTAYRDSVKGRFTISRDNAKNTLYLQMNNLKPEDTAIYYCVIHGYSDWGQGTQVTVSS VL: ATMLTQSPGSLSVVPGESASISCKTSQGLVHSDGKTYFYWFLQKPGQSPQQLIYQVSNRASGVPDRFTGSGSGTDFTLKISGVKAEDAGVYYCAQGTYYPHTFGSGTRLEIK", 0.00206],
  ["5E5WT scFv-Fc (scFv, part only; not given: Linker, domain order, Fc, V domains shown, not shown: another chain or arm of the molecule; a dimerising Fc or GST; small tags and cut ends) VH: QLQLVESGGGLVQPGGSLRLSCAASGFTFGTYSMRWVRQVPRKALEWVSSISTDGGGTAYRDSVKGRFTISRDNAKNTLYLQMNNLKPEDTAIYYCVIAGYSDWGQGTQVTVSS VL: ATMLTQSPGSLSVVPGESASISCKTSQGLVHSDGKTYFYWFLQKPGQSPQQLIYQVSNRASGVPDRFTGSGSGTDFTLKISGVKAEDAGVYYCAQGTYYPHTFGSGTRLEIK", "2.53e-05"],
  ["5E5VHWT_VL8 scFv-Fc (scFv, part only; not given: Linker, domain order, Fc, V domains shown, not shown: another chain or arm of the molecule; a dimerising Fc or GST; small tags and cut ends) VH: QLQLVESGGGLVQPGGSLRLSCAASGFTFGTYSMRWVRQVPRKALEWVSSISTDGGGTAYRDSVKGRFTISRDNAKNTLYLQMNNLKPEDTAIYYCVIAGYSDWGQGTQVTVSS VL: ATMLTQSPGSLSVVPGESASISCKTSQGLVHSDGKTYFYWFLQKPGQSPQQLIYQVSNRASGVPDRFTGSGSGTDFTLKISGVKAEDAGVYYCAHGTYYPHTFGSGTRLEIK", 0.00116],
  ["5E5VH5_VLWT scFv-Fc (scFv, part only; not given: Linker, domain order, Fc, V domains shown, not shown: another chain or arm of the molecule; a dimerising Fc or GST; small tags and cut ends) VH: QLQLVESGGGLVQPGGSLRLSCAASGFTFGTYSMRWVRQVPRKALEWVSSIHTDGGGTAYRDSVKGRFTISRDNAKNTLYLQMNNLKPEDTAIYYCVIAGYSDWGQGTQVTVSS VL: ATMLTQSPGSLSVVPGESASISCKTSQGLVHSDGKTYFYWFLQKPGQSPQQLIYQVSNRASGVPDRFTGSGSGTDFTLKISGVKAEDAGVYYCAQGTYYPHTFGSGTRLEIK", 0.0016]
]}
